Target Under Test: T1, human TREM2 (human, UniProt Q9NZC2 19-174, limits assumed)
T1 construct: also called triggering receptor expressed on myeloid cells 2
T1 sequence: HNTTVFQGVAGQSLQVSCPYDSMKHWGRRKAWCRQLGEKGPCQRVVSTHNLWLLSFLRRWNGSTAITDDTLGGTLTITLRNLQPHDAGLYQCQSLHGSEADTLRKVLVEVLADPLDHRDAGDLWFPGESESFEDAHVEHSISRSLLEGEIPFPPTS
Measurement Notes: 1st screen, 110 nM Ab
Measured Metric: Binding Signal

q: Find the measured Binding Signal of V19 (antibody, V domains shown, also called 6E7 variant V19) VH: EVQLVQSGAEVKKPGESLKISCKGSGYSFTSSWIAWVRQMPGKGLEWMGIIYPGDSDTRYSPSFQGQVTISADKSISTAYLQWSSLKASDTAMYFCARQRTFYYDSSDYFDYWGQGTLVTVSS VL: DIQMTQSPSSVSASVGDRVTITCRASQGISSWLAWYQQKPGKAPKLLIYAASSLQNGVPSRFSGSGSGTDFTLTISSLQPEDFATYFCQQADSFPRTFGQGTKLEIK and report it.
a: 0.59 fold over 6E7 parental antibody
